The reader will find reported Activity values listed item by item below.
# System: Mus musculus
# assaySummary: Antiinflammatory activity in BALB/c mouse model of carrageenan-induced paw edema assessed as paw thickness at 100 mg/kg, ip pretreated for 1 hr followed by carrageenan challenge and measured after 2 hrs by caliper method (reference value: 3.56 +/- 0.29 millimeter)
# Assay type: functional
# reportedConditions: time 3 hrs
The response must be a number in mm with no trailing unit.

Nc1nc2ccc(N(CCN3CCOCC3)C(=O)Nc3ccc(Cl)cc3)cc2s1 :: 3.06
Nc1nc2ccc(N(CCN3CCOCC3)C(=O)Nc3ccc(F)c(Br)c3)cc2s1 :: 3.16
O=C(Cc1ccccc1)Nc1nc2ccc(N(CCN3CCOCC3)C(=O)Nc3ccc(Cl)cc3)cc2s1 :: 3.22

Now examine the next entry.
Please look up its Activity: O=C(NC12CC3CC(CC(C3)C1)C2)N[C@H]1CC[C@H](Oc2ccc(C(=O)O)cc2)CC1 3.23
